Target under test: Potassium voltage-gated channel subfamily KQT member 2 (Rattus norvegicus)
Measurement description: KCNQ2 potentiation in CHO cells – cell-based, FluxOR thallium flux, counter-screen for hERG block protector project, confirmation (AID 1942)
Condition details: FluxOR thallium flux fluorescence, at 10 µM
Screen size: about 2,400 compounds; about 580 (24%) were called active.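 How the source made its calls: active means activity change at or above the mean plus 3 SD of buffer wells without dofetilide, per plate; inactive means the rest.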 A selection follows.
Classes used: active, inactive

{"Compound": "C=CCc1cc(Cl)ccc1OCCOCCN(C)C", "Discrete label": "inactive"}
{"Compound": "CCC(C)n1c(=S)[nH]c2ccccc2c1=O (configuration not stated)", "Discrete label": "active"}
{"Compound": "COc1ccc(OC)c(NC(=O)C(=S)NC2CCCCC2)c1", "Discrete label": "inactive"}
{"Compound": "CCCN(C(=O)c1ccco1)c1nnc(-c2ccncc2)s1", "Discrete label": "inactive"}
{"Compound": "COc1ccc(CCn2c(S)nc3ccccc3c2=O)cc1", "Discrete label": "inactive"}
{"Compound": "CC(C)c1ccc(NC(=O)C2CC3CCC2C3)cc1 (configuration not stated)", "Discrete label": "active"}
{"Compound": "O=c1c2ccccc2[nH]c(=S)n1CCc1ccccc1", "Discrete label": "active"}
{"Compound": "CCC(Cc1ccccc1)n1c(=S)[nH]c2ccccc2c1=O (configuration not stated)", "Discrete label": "inactive"}
{"Compound": "CC(C)COn1c(=S)[nH]c2ccccc2c1=O", "Discrete label": "active"}
{"Compound": "COc1ccc(NC(=O)COC(=O)c2c(C)noc2C)c(OC)c1", "Discrete label": "inactive"}
{"Compound": "Cc1cc(C)c(NC(=O)C2CC3CCC2C3)c(C)c1 (configuration not stated)", "Discrete label": "active"}
{"Compound": "O=C(O)Cc1ccc(NC(=O)C2CC=CCC2C(=O)O)cc1 (configuration not stated)", "Discrete label": "inactive"}
